B1: WSB1 (parent)
chain: FSHDGLHVASLADDKMVRFWRIDE

Variants of: B1
Assay: protein stability index of a GFP-peptide fusion (GPS, HEK-293T) (PSI 1-6); higher = more stable;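 also: lentivirally expressed fusions sorted by FACS into six bins by GFP to DsRed ratio, PSI derived from sequencing read proportions per bin multiplied by bin number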
Conditions: c terminus: a fixed tail appended
assay-metric: protein stability index

[[record]]
variant_name = "D14M"
assay_metric = "protein stability index"
quantitative_result = 1.97

[[record]]
variant_name = "V17F"
assay_metric = "protein stability index"
quantitative_result = 1.58

[[record]]
variant_name = "V17Y"
assay_metric = "protein stability index"
quantitative_result = 1.91

[[record]]
variant_name = "L11E"
assay_metric = "protein stability index"
quantitative_result = 1.65

[[record]]
variant_name = "L6K"
assay_metric = "protein stability index"
quantitative_result = 1.65

[[record]]
variant_name = "M16Y"
assay_metric = "protein stability index"
quantitative_result = 1.66

[[record]]
variant_name = "A9N"
assay_metric = "protein stability index"
quantitative_result = 2.09

[[record]]
variant_name = "K15V"
assay_metric = "protein stability index"
quantitative_result = 2.78

[[record]]
variant_name = "S2M"
assay_metric = "protein stability index"
quantitative_result = 3.12

[[record]]
variant_name = "F1L"
assay_metric = "protein stability index"
quantitative_result = 3.14

[[record]]
variant_name = "R18K"
assay_metric = "protein stability index"
quantitative_result = 2.12

[[record]]
variant_name = "H3L"
assay_metric = "protein stability index"
quantitative_result = 1.37

[[record]]
variant_name = "D4P"
assay_metric = "protein stability index"
quantitative_result = 2

[[record]]
variant_name = "G5K"
assay_metric = "protein stability index"
quantitative_result = 1.96

[[record]]
variant_name = "G5C"
assay_metric = "protein stability index"
quantitative_result = 1.34

[[record]]
variant_name = "F19A"
assay_metric = "protein stability index"
quantitative_result = 2.27

[[record]]
variant_name = "F19S"
assay_metric = "protein stability index"
quantitative_result = 2.42

[[record]]
variant_name = "S10V"
assay_metric = "protein stability index"
quantitative_result = 1.11

[[record]]
variant_name = "W20E"
assay_metric = "protein stability index"
quantitative_result = 3.18

[[record]]
variant_name = "W20A"
assay_metric = "protein stability index"
quantitative_result = 2.48

[[record]]
variant_name = "L11K"
assay_metric = "protein stability index"
quantitative_result = 2.24

[[record]]
variant_name = "M16H"
assay_metric = "protein stability index"
quantitative_result = 2.45

[[record]]
variant_name = "D23N"
assay_metric = "protein stability index"
quantitative_result = 1.8

[[record]]
variant_name = "V17P"
assay_metric = "protein stability index"
quantitative_result = 2.42

[[record]]
variant_name = "D14K"
assay_metric = "protein stability index"
quantitative_result = 1.96

[[record]]
variant_name = "S2V"
assay_metric = "protein stability index"
quantitative_result = 2.64

[[record]]
variant_name = "V8M"
assay_metric = "protein stability index"
quantitative_result = 1.03

[[record]]
variant_name = "S10I"
assay_metric = "protein stability index"
quantitative_result = 1.69

[[record]]
variant_name = "L11S"
assay_metric = "protein stability index"
quantitative_result = 1.05

[[record]]
variant_name = "D23H"
assay_metric = "protein stability index"
quantitative_result = 1.85

[[record]]
variant_name = "R18P"
assay_metric = "protein stability index"
quantitative_result = 1.83

[[record]]
variant_name = "M16L"
assay_metric = "protein stability index"
quantitative_result = 1.56

[[record]]
variant_name = "V8N"
assay_metric = "protein stability index"
quantitative_result = 1.68

[[record]]
variant_name = "W20F"
assay_metric = "protein stability index"
quantitative_result = 2.09

[[record]]
variant_name = "W20I"
assay_metric = "protein stability index"
quantitative_result = 2.85

[[record]]
variant_name = "K15Q"
assay_metric = "protein stability index"
quantitative_result = 1.04

[[record]]
variant_name = "H3P"
assay_metric = "protein stability index"
quantitative_result = 1.67

[[record]]
variant_name = "L6I"
assay_metric = "protein stability index"
quantitative_result = 2.15

[[record]]
variant_name = "S2P"
assay_metric = "protein stability index"
quantitative_result = 1.69

[[record]]
variant_name = "A9W"
assay_metric = "protein stability index"
quantitative_result = 2.44

[[record]]
variant_name = "R21Q"
assay_metric = "protein stability index"
quantitative_result = 1.44

[[record]]
variant_name = "A12N"
assay_metric = "protein stability index"
quantitative_result = 2.43

[[record]]
variant_name = "S2Y"
assay_metric = "protein stability index"
quantitative_result = 1.83

[[record]]
variant_name = "H3K"
assay_metric = "protein stability index"
quantitative_result = 2.08

[[record]]
variant_name = "W20S"
assay_metric = "protein stability index"
quantitative_result = 2.7

[[record]]
variant_name = "L6D"
assay_metric = "protein stability index"
quantitative_result = 2.07


The reported numbers originate from the supplement of paper PMC10567573.
